Below, each entry is listed alongside its reported MIC.
System: SAU 29213
Experiment: MIC, broth microdilution (CLSI), substance alone or ATB combined with compound at 4 or 8 μg/mL
Type: cell-based, S. aureus
Conditions: Staphylococcus aureus; SAU 29213; antibiotic alone; read-out: MIC ATB alone
MEASUREMENT LABEL: MIC

INSERT INTO results (molecule, target_or_system, measurement_label, reported_value) VALUES
  ('CO/N=C(\C(=O)N[C@@H]1C(=O)N2C(C(=O)O)=C(COC(N)=O)CS[C@H]12)c1ccco1 [FUR, Cefuroxime, reference compound]', 'SAU 29213', 'MIC', '2 µg/mL'),
  ('COCC1=C(C(=O)O)N2C(=O)[C@@H](NC(=O)/C(=N\OC)c3csc(N)n3)[C@H]2SC1 [POD, Cefpodoxime, reference compound]', 'SAU 29213', 'MIC', '4 µg/mL'),
  ('CC1(C)S[C@@H]2[C@H](NC(=O)[C@H](N)c3ccc(O)cc3)C(=O)N2[C@H]1C(=O)O [AMX, Amoxicillin, reference compound]', 'SAU 29213', 'MIC', '2 µg/mL'),
  ('C=CC1=C(C(=O)O)N2C(=O)[C@@H](NC(=O)/C(=N\OCC(=O)O)c3csc(N)n3)[C@H]2SC1 [FIX, Cefixime, reference compound]', 'SAU 29213', 'MIC', '16 µg/mL'),
  ('NCC[C@H](O)C(=O)N[C@@H]1C[C@H](N)[C@@H](O[C@H]2O[C@H](CN)[C@@H](O)[C@H](O)[C@H]2O)[C@H](O)[C@H]1O[C@H]1O[C@H](CO)[C@@H](O)[C@H](N)[C@H]1O [AN, Amikacin, reference compound]', 'SAU 29213', 'MIC', '2 µg/mL');

###

Test system: PAE UFR90
Assay: MIC, broth microdilution (CLSI), substance alone or ATB combined with compound at 4 or 8 μg/mL
Assay type: cell-based, P. aeruginosa
Settings: ATB FOS; compound @8 μg/ml; PAE UFR90
MEASUREMENT LABEL: MIC ATB combined with compound (mg/L)

INSERT INTO results (compound, target_or_system, measurement_label, bound_operator, reported_value) VALUES
  ('O=C1N2CC(c3ncco3)=CC(C2)N1OC(F)(F)C(=O)O (centres unmarked) [Example 7]', 'PAE UFR90', 'MIC ATB combined with compound', '=', 8),
  ('O=C1N2CC(c3cccnc3)=CC(C2)N1OS(=O)(=O)[O-].[Na+] (centres unmarked) [Example 8]', 'PAE UFR90', 'MIC ATB combined with compound', '=', 8),
  ('NC[C@H]1C=C(c2cnco2)[C@@H]2CN1C(=O)N2OS(=O)(=O)[O-].O=C(O)C(F)(F)F.[Na+] (relative stereo) [Example 1]', 'PAE UFR90', 'MIC ATB combined with compound', '<', 0.125),
  ('O=C(O)C(F)(F)F.O=C1N2C[C@H](c3scnc3[C@H]2c2ncc[nH]2)N1OS(=O)(=O)[O-].[Na+] (relative stereo) [Example 6]', 'PAE UFR90', 'MIC ATB combined with compound', '=', 8),
  ('NCCn1c2c(sc1=O)C1CN(C2)C(=O)N1OS(=O)(=O)[O-].[Na+] (centres unmarked) [Example 3]', 'PAE UFR90', 'MIC ATB combined with compound', '<', 0.125);

###

Below, each entry is listed alongside its reported MIC ATB combined with Example.
Test system: ECL P99
Assay: MIC, broth microdilution (CLSI), substance alone or ATB combined with compound at 4 or 8 μg/mL
Type: cell-based, E. cloacae
Conditions: ATB PIP; ECL P99; Example @8 μg/ml
MEASUREMENT LABEL: MIC ATB combined with Example

INSERT INTO results (compound, measurement_label, reported_value) VALUES
  ('O=C1N2CC(n3cccn3)=CC(C2)N1OC(F)(F)C(=O)[O-].[Li+] (centres unmarked) [Example 13]', 'MIC ATB combined with Example', '4 µg/mL'),
  ('NCCCn1c2c(sc1=O)C1CN(C2)C(=O)N1OS(=O)(=O)O (centres unmarked) [Example 10]', 'MIC ATB combined with Example', '<0.031 µg/mL'),
  ('O=C1N2CC(n3cncn3)=CC(C2)N1OS(=O)(=O)[O-].[Na+] (centres unmarked) [Example 14]', 'MIC ATB combined with Example', '<0.031 µg/mL'),
  ('O=C1N2CC(n3cccn3)=CC(C2)N1OS(=O)(=O)[O-].[Na+] (centres unmarked) [Example 11]', 'MIC ATB combined with Example', '<0.031 µg/mL'),
  ('O=C1N2CC(n3ccnn3)=CC(C2)N1OS(=O)(=O)[O-].[Na+] (centres unmarked) [Example 12]', 'MIC ATB combined with Example', '<0.031 µg/mL');

###

Below, each entry is listed alongside its reported MIC ATB combined with Example 12 @8 μg/ml.
Test system: ECL P99
Test: MIC, broth microdilution (CLSI), substance alone or ATB combined with compound at 4 or 8 μg/mL
Assay type: cell-based, E. cloacae
Conditions: ECL P99; with Example 12 at 8 μg/ml
MEASUREMENT LABEL: MIC ATB combined with Example 12 @8 μg/ml

INSERT INTO measurements (compound, reported_value) VALUES
  ('CO/N=C(\C(=O)N[C@@H]1C(=O)N2C(C(=O)O)=C(COC(N)=O)CS[C@H]12)c1ccco1 [FUR, Cefuroxime, reference compound]', '<0.031 µg/mL'),
  ('C=CC1=C(C(=O)O)N2C(=O)[C@@H](NC(=O)/C(=N\OCC(=O)O)c3csc(N)n3)[C@H]2SC1 [FIX, Cefixime, reference compound]', '<0.031 µg/mL'),
  ('CN(C)c1cc(NC(=O)CNC(C)(C)C)c(O)c2c1C[C@H]1C[C@H]3[C@H](N(C)C)C(O)=C(C(N)=O)C(=O)[C@@]3(O)C(O)=C1C2=O', '<0.031 µg/mL');

###

Below, each entry is listed alongside its reported MIC ATB combined with Example 1 @8 μg/ml.
System: PAE UFR90
Assay: MIC, broth microdilution (CLSI), substance alone or ATB combined with compound at 4 or 8 μg/mL
Assay type: cell-based, P. aeruginosa
Conditions: PAE UFR90; with Example 1 @8 μg/ml
MEASUREMENT LABEL: MIC ATB combined with Example 1 @8 μg/ml

INSERT INTO assay_data (molecule, target_or_system, reported_value) VALUES
  ('CO/N=C(\C(=O)N[C@@H]1C(=O)N2C(C(=O)O)=C(CSc3nc(=O)c(O)nn3C)CS[C@H]12)c1csc(N)n1', 'PAE UFR90', '<0.031 µg/mL'),
  ('NCC[C@H](O)C(=O)N[C@@H]1C[C@H](N)[C@@H](O[C@H]2O[C@H](CN)[C@@H](O)[C@H](O)[C@H]2O)[C@H](O)[C@H]1O[C@H]1O[C@H](CO)[C@@H](O)[C@H](N)[C@H]1O [AN, Amikacin, reference compound]', 'PAE UFR90', '<0.031 µg/mL'),
  ('CC1(C)S[C@@H]2[C@H](NC(=O)[C@H](N)c3ccc(O)cc3)C(=O)N2[C@H]1C(=O)O [AMX, Amoxicillin, reference compound]', 'PAE UFR90', '<0.031 µg/mL');

###

Test system: PAE UFR48
Test: MIC, broth microdilution (CLSI), substance alone or ATB combined with compound at 4 or 8 μg/mL
Assay type: cell-based, P. aeruginosa
Details: ATB MEM; PAE UFR48; Example @8 μg/ml
MEASUREMENT LABEL: MIC ATB combined with Example

INSERT INTO results (molecule, reported_value) VALUES
  ('O=C1N2CC(n3cccn3)=CC(C2)N1OC(F)(F)C(=O)[O-].[Li+] (centres unmarked)', '0.5 µg/mL'),
  ('O=C1N2CC(n3cncn3)=CC(C2)N1OS(=O)(=O)[O-].[Na+] (centres unmarked)', '0.25 µg/mL'),
  ('O=C1N2CC(n3cccn3)=CC(C2)N1OS(=O)(=O)[O-].[Na+] (centres unmarked)', '0.25 µg/mL'),
  ('NCCCn1c2c(sc1=O)C1CN(C2)C(=O)N1OS(=O)(=O)O (centres unmarked)', '<0.031 µg/mL'),
  ('O=C1N2CC(n3ccnn3)=CC(C2)N1OS(=O)(=O)[O-].[Na+] (centres unmarked)', '0.5 µg/mL');

###

Below, each entry is listed alongside its reported MIC ATB combined with Example 12 @8 μg/ml.
Tested on: PAE UFR90
Assay: MIC, broth microdilution (CLSI), substance alone or ATB combined with compound at 4 or 8 μg/mL
Type: cell-based, P. aeruginosa
Conditions: PAE UFR90; with Example 12 at 8 μg/ml
MEASUREMENT LABEL: MIC ATB combined with Example 12 @8 μg/ml (µg/mL)

INSERT INTO measurements (molecule, target_or_system, bound_operator, reported_value) VALUES
  ('COCC1=C(C(=O)O)N2C(=O)[C@@H](NC(=O)/C(=N\OC)c3csc(N)n3)[C@H]2SC1 [POD, Cefpodoxime, reference compound]', 'PAE UFR90', '>', 32),
  ('CN(C)c1cc(NC(=O)CNC(C)(C)C)c(O)c2c1C[C@H]1C[C@H]3[C@H](N(C)C)C(O)=C(C(N)=O)C(=O)[C@@]3(O)C(O)=C1C2=O', 'PAE UFR90', '=', 16),
  ('NCC[C@H](O)C(=O)N[C@@H]1C[C@H](N)[C@@H](O[C@H]2O[C@H](CN)[C@@H](O)[C@H](O)[C@H]2O)[C@H](O)[C@H]1O[C@H]1O[C@H](CO)[C@@H](O)[C@H](N)[C@H]1O [AN, Amikacin, reference compound]', 'PAE UFR90', '=', 2),
  ('CC1(C)S[C@@H]2[C@H](NC(=O)[C@H](N)c3ccc(O)cc3)C(=O)N2[C@H]1C(=O)O [AMX, Amoxicillin, reference compound]', 'PAE UFR90', '>', 32),
  ('CO/N=C(\C(=O)N[C@@H]1C(=O)N2C(C(=O)O)=C(COC(N)=O)CS[C@H]12)c1ccco1 [FUR, Cefuroxime, reference compound]', 'PAE UFR90', '>', 32);
